// provenance: patent US6288070A

Record form. Attribute: pIC50. Fill in for each entry.
Molecular target: adenosine A3 receptor (Homo sapiens, UniProt P0DMS8)
Sequence (P0DMS8 1-318): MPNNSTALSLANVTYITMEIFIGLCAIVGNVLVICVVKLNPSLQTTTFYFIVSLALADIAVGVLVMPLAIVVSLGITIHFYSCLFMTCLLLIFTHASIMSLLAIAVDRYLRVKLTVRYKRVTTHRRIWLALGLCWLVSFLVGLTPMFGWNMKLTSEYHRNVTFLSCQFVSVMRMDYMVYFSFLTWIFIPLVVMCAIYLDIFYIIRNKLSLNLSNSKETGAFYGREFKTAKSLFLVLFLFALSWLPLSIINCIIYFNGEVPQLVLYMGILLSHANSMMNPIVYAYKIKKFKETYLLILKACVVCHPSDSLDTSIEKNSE
pIC50 here is simply -log10 of the concentration when that concentration is written in mol/L.

Readout pIC50 for CCCCc1nc2nc[nH]c2c2nc(-c3ccc(CP(=O)(OCC)OCC)cc3)nn12 , test system adenosine A3 receptor (Homo sapiens, UniProt P0DMS8), was 8.43

Readout pIC50 for CCCCc1nc2nc[nH]c2c2nc(-c3ccc(N(CC)CC)cc3)nn12 , test system adenosine A3 receptor (Homo sapiens, UniProt P0DMS8), was 8.11

Readout pIC50 for COc1cc(-c2nc3c4[nH]cnc4nc(-c4ccccc4)n3n2)cc(OC)c1OC , test system adenosine A3 receptor (Homo sapiens, UniProt P0DMS8), was 8.82

Readout pIC50 for Cc1nc2nc[nH]c2c2nc(-c3cccnc3)nn12 , test system adenosine A3 receptor (Homo sapiens, UniProt P0DMS8), was 7.02
